- Tested on: SF-539 CNS
- method description: NCI-60 one-dose screen, 48 h
- condition details: 10 µM unless noted
About 83,000 compounds went through this panel and 20% of them were active in at least one assay; those are over-represented in the sample as a whole. Activity calls are given as the source filed them. Rule for the calls: active = growth percent below 10; inactive = the rest.
Log the outcome using a class from 1 (active), -1 (inactive)

So what was the verdict on CCOC(=O)c1c2c(c(C)n1C)-c1nn(Cc3ccc(OC)cc3)cc1CC2 in this test? -1

Any idea what this test logged for O=c1[nH]nc(-c2ccc(Cl)cc2)cc1Cc1ccccc1 ? -1

What did the test return for CCN(CC)c1ccc(Nc2ccc(CC(=O)c3ccccc3)cc2)cc1 ? -1

# fetch the recorded call for CCCCn1c(=O)[nH]c(N)c(C(c2ccc(F)cc2)c2c(N)[nH]c(=O)n(CCCC)c2=O)c1=O here -1

Kindly provide the recorded test outcome for the following compound: Cn1ncc2c(Nc3ccc(Br)cc3)nc(Nc3ccc(Br)cc3)nc21 -1

Give the logged outcome of this assay for the following compound: CN(C)CCC(O)(Cc1ccccc1)c1ccccc1 (stereo not drawn) -1

What was the test verdict on C=C1c2c(C)nn(-c3ccc(S(N)(=O)=O)cc3)c2N(C)C23CC1C1(C)c4c(C)nn(-c5ccc(S(N)(=O)=O)cc5)c4N(C)C(C)(CC12)C3 (stereo not drawn) ? -1

Which outcome did this test record for the compound Cc1nc(Nc2ccc(NC(=S)Nc3ccccc3)cc2)nc2nc(SCc3ccccc3)[nH]c(=O)c12 ? -1

Which outcome did this test record for the compound O=C(NC1CCOCC1)c1ccc2c(c1)CN(c1ncc(Cc3cccc(-n4cccn4)c3)s1)CC2 ? -1

Fill in: this test's call for Cl.Fc1c[c-]c(-c2ccccn2)c(F)c1.[Pt].c1ccc(P(c2ccccc2)C([PH+](c2ccccc2)c2ccccc2)[PH+](c2ccccc2)c2ccccc2)cc1 is ___ 1

Per the assay record, what outcome was assigned to O=C(Nc1ccc(N2CCCCC2)c(Cl)c1)c1ccc(Br)o1 ? -1

Tell me the assay call for CCc1nc2ccccc2[nH]1 please. -1

Could you kindly confirm the outcome this assay logged for CCc1c(C(=O)N[C@@H]2c3cc(Cl)ccc3CC[C@@H]2O)[nH]c(C)c1C(C)=O ? -1

Recorded test outcome, item NC(N)=N/N=C/c1ccc(Br)cc1 -1

Recorded test outcome, item Cc1cc2c(F)c(Oc3ncnc(Nc4ccc(N5C[C@@H](C)N[C@@H](C)C5)cc4)c3C#N)cc(F)c2[nH]1 1

Kindly provide the recorded test outcome for the following compound: COc1ccc(-c2cc(-c3ccc(Nc4nc(Nc5ccccc5)nc(Nc5ccc(Cl)cc5)n4)cc3)nc(N)n2)cc1 -1

Hi, do you know how COc1ccc(-c2c(N)n[nH]c2-c2ccccc2O)cc1OC came out in this test? -1

For C#CC[C@H](N)C(=O)O , what call appears in the results of this test? -1

Hi, do you know how COc1ccc(/C=C(\C#N)n2nnc3cc(F)c(F)cc32)c(OC)c1OC came out in this test? -1

// param item: Nc1ccc(CCCCc2ccccc2)c(Cl)c1 ; yields the recorded call -1

Would you mind telling me which call this test gave Cc1nc(Nc2ccc(N)cc2)c2ccccc2n1 ? -1

Assay outcome for O=C1c2ccccc2C(=O)c2cc(Cn3cc[n+](Cc4ccc5ccccc5c4)c3)ccc21 : what was it? -1

Any idea what this test logged for CCCCN(Cc1ccc(C(=O)NO)cc1)C(=O)Nc1ccc(OCCCCCCCCCn2cc(CCCCC(=O)N[C@H](C(=O)N3C[C@H](O)C[C@H]3C(=O)NCc3ccc(-c4scnc4C)cc3)C(C)(C)C)nn2)cc1 ? -1

Returns: the outcome recorded for COc1cc2oc(-c3cccc(C(=O)Nc4ccc(C)cc4)c3)cc(=O)c2c(OC)c1OC in this assay. -1

Fill in: this test's call for OC(COc1cccc2ccccc12)CN1CCN(c2ccccc2)CC1 (stereo not drawn) is ___ -1

I would be grateful if you could indicate the recorded call for C=C(C)[C@@H]1CC[C@]2(CN)CC[C@]3(C)[C@H](CC[C@@H]4[C@@]5(C)CCC(N)[C@@](C)(CO)[C@@H]5CC[C@]43C)[C@@H]12 (stereo partly drawn) . 1

Tell me the assay call for CCOC(=O)c1c(C)nc2c(c1N)/C(=C/c1ccc(OC)cc1)C(=O)N2Cc1ccc(F)cc1 please. 1

Which outcome was assigned to CC(C)n1nc(C#Cc2cccc(O)c2)c2c(N)ncnc21 in this test? 1

Write down the call the test reported for this compound. Item: N#Cc1c(NC(=O)c2cccc(C(F)(F)F)c2)sc2c1CCC(=O)C2 1

Outcome logged for COc1cc2oc(-c3cccc(C(=O)Nc4ccc(C#N)cc4)c3)cc(=O)c2c(O)c1OC in this assay: -1

# outcome recorded in this test, key = COc1ccc(/C(C)=C(\c2ccc(Cl)cc2)c2ccc(OCCN3CCCCCC3)cc2)cc1F -1

Identify the outcome logged in this assay for the compound shown: COc1ccc(/C=C2\COc3ccc(O)cc3C2=O)c(OC)c1 -1

Dear colleague, could you share the recorded outcome for O=C(Nc1ccccc1)c1sc(-c2cccc(C(F)(F)F)c2)cc1O when you have a moment? -1
